Numbers sourced from patent US7943628B2.

Molecular target: histamine H4 receptor (Homo sapiens, UniProt Q9H3N8)
Construct: expressed in transfected cells; host or cells: CHO cells
Sequence (Q9H3N8 whole entry): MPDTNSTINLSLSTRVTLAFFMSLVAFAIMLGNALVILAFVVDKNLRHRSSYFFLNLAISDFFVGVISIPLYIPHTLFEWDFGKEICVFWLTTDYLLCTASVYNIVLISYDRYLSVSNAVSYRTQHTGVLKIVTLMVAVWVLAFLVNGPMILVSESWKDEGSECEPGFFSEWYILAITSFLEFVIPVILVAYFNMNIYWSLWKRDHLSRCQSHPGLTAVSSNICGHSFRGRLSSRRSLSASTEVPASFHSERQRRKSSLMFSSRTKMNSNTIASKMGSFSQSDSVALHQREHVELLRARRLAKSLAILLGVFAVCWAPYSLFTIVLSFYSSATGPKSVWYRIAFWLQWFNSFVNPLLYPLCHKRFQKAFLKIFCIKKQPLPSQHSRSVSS
Assay: H4 binding, method 1 ([3H]-histamine filtration binding on CHO cell membranes)
Conditions: H4 binding, method 1; Ki calculated from IC50 (Cheng-Prussoff)
Method: Cell pellets from CHO cells expressing the histamine H4 receptor were homogenised in ice-cold 50 mM Tris-HCl/0.5 mM CaCl2 buffer containing a protease inhibitor cocktail (Roche®, United Kingdom) using a ground glass homogeniser. Homogenates were centrifuged at 48000 g for 30 min at 4° C. The membrane pellet was resuspended in fresh buffer and the centrifugation step was repeated as described above. The membrane pellet was resuspended in 50 mM Tris-HCl in the same volume as the original cell pellet. […]
Field: Ki. Provide a value for each of the compounds that follow.
One number for each entry, in nM.

Here are 4 compounds together with their reported answers.
# compound, readout unit, readout value
data = [
    ("CN[C@@H]1CCN(c2cc(N3CC(F)(F)C3)nc(N)n2)C1", "nM", 1160),
    ("CN[C@@H]1CCN(c2cc(NCc3cc(F)ccc3F)nc(N)n2)C1", "nM", 298),
    ("CC(C)(C)CNc1cc(N2C[C@H]3CCCN[C@H]3C2)nc(N)n1 (racemic)", "nM", 3.06),
    ("CCN1CCN(c2cc(NCCC(C)(C)C)ncn2)CC1", "nM", 839),
]

Next compound, please.
*Q* Item `CN1CCN(c2cc(NCC3CC3)nc(N)n2)CC1` has what recorded Ki?
*A* 3.65

* * *

Target: histamine H4 receptor (Homo sapiens, UniProt Q9H3N8)
Construct: expressed in transfected cells; host or cells: CHO cells
Assay: H4 binding, method 1 ([3H]-histamine filtration binding on CHO cell membranes)
Settings: H4 binding, method 1; Ki calculated from IC50 (Cheng-Prussoff)
Where a name gives a salt, the structure may show the parent alone.
Field: Ki. Provide a value for each of the compounds that follow.
Report field: quantity (unit follows the number).

# compound, Ki
records = [
    ("CC[C@H](C)Nc1cc(N2CC[C@@H](NC)C2)nc(N)n1", "12.4 nM"),
]

Fill in Ki for each of the 6 compounds listed.
1. C[C@@H]1CN(c2cc(NCc3ccccc3)nc(N)n2)CCN1
2. Nc1nc(NCC2CC2)cc(N2CC(N3CCCC3)C2)n1
3. CN[C@@H]1CCN(c2cc(NC3CC3)nc(N)n2)C1
4. CNCCNc1cc(NCC(C)(C)C)nc(N)n1
5. CNC1CN(c2cc(NCC(C)(C)C)nc(N)n2)C1 [Example 159, hydrochloride]
6. CNC1CN(c2cc(NCc3ccc(F)cc3F)nc(N)n2)C1

*A*
["577 nM", "7.21 nM", "501 nM", "72.4 nM", "2.62 nM", "2.49 nM"]

Fill in Ki for each of the 3 compounds listed.
1. CNC1CN(c2cc(N3CCOC[C@@H]3C)nc(N)n2)C1
2. CN[C@@H]1CCN(c2cc(NC3(C)CC3)nc(N)n2)C1
3. CC(C)NC1CN(c2cc(NCC(C)(C)C)nc(N)n2)C1

*A*
1. 258 nM
2. 5.2 nM
3. 14.3 nM

Fill in Ki for each of the 5 compounds listed.
1. CN[C@@H]1CCN(c2cc(NCC3CCCC3)nc(N)n2)C1
2. CN1CCN(c2cc(NCC(C)(C)C)ncn2)CC1
3. C[C@@H]1CN(c2cc(NCc3ccc(F)cc3)nc(N)n2)CCN1
4. CNC1CN(c2cc(NCC(C)C)ncn2)C1
5. CN[C@@H]1CCN(c2cc(NCc3cccc(F)c3)nc(N)n2)C1

*A*
1: 10.6 nM; 2: 23.6 nM; 3: 312 nM; 4: 10.7 nM; 5: 343 nM

* * *

Field: log10 Ki. Provide a value for each of the compounds that follow.
Biological target: histamine H4 receptor (Homo sapiens)
Construct: expressed in transfected cells; host or cells: CHO cells
Assay: H4 binding, method 1 ([3H]-histamine filtration binding on CHO cell membranes)
Settings: H4 binding, method 1; Ki calculated from IC50 (Cheng-Prussoff)
Plainly stated, the numbers are log10 of Ki given in nM.

Here are 6 compounds together with their reported answers.
# compound, log10 Ki
records = [
    ("CC(C)CNc1cc(N2CCCN(C)CC2)nc(N)n1", 0.05),
    ("CN[C@H]1CCN(c2cc(NCC3CC3)nc(N)n2)C1", 1.59),
    ("CCNc1cc(N2CCC(N)CC2)nc(N)n1", 1.08),
    ("CNC1CN(c2cc(NCc3ccc(F)c(F)c3)nc(N)n2)C1", 1.48),
    ("CC(C)Nc1cc(N2CCCN(C)CC2)nc(N)n1", 1.53),
    ("CNC1CN(c2cc(NC3CCC3)nc(N)n2)C1", 0.03),
]

Fill in log10 Ki for each of the 2 compounds listed.
1. CN[C@@H]1CCN(c2cc(NCC3CC3)nc(N)n2)C1 [Example 167]
2. CC(C)(C)CCNc1cc(N[C@H]2CCN(Cc3ccc(CO)o3)C2)ncn1

*A*
0.80
3.03

* * *

Biological target: histamine H4 receptor (Homo sapiens)
Construct: expressed in transfected cells; host or cells: CHO cells
Experiment: H4 binding, method 1 ([3H]-histamine filtration binding on CHO cell membranes)
Details: H4 binding, method 1; Ki calculated from IC50 (Cheng-Prussoff)
Response field class: string, computed from recorded Ki by ranges lower band (below 5 nM), central band (5 nM to below 40 nM), upper band (40 nM or more)

# compound, assigned category
records = [
    ("CN1CCCN(c2cc(NCC(C)(C)C)ncn2)CC1 [Example 239]", "upper band"),
    ("CC[C@H](C)Nc1cc(N2CC(NC)C2)nc(N)n1 [Example 161]", "lower band"),
    ("CNC1CN(c2cc(NCc3cccc(F)c3F)nc(N)n2)C1 [Example 131]", "central band"),
]

In the following, a different compound is considered.
*Q* Would you mind sorting CN[C@H]1CCN(c2cc(NC(C)(C)C)nc(N)n2)C1 [Example 207] into the appropriate category?
*A* upper band

* * *

Biological target: histamine H4 receptor (Homo sapiens)
Construct: expressed in transfected cells; host or cells: CHO cells
Assay: H4 binding, method 1 ([3H]-histamine filtration binding on CHO cell membranes)
Conditions: H4 binding, method 1; Ki calculated from IC50 (Cheng-Prussoff)
reported property: log10(Ki) (log10 of the value in nM)
Plainly stated, the numbers are log10 of Ki given in nM.

Here are 2 compounds together with their reported answers.
# compound, experimental system, log10(Ki)
measured = [
    ("CN[C@@H]1CCN(c2cc(NC(C)(C)C)nc(N)n2)C1", "histamine H4 receptor (Homo sapiens)", 0.69),
    ("CCC(C)Nc1cc(N2CC(NC)C2)ncn1 (stereo not drawn)", "histamine H4 receptor (Homo sapiens)", 1.06),
]

Fill in log10(Ki) for each of the 8 compounds listed.
1. c1ccc(CCNc2cc(N[C@H]3CCNC3)ncn2)cc1
2. CNc1cc(N2CC[C@@H]3NCC[C@@H]3C2)nc(N)n1 (racemic)
3. CC(C)(C)CNc1cc(N2CCNCC2)nc(N)n1
4. CCCCNc1cc(N2CC(NC)C2)nc(N)n1
5. CN1CC[C@H](Nc2cc(NCCC(C)(C)C)ncn2)C1
6. CNc1cc(N2CC(C)(NC)C2)nc(N)n1
7. CNC1CN(c2cc(NCC3CCCC3)nc(N)n2)C1
8. CC(C)(C)CNc1cc(N2CC(N3CCCC3)C2)nc(N)n1

*A*
1. 3.72
2. 1.53
3. 0.39
4. -0.10
5. 3.52
6. 2.52
7. -0.01
8. 0.48

Fill in log10(Ki) for each of the 5 compounds listed.
1. c1nc(NCC2CC2)cc(N2CCNCC2)n1
2. CCNc1cc(N2CCN(C)CC2)nc(N)n1
3. CN[C@@H]1CCN(c2cc(N3CCOCC3)nc(N)n2)C1
4. CN1C[C@@H]2C[C@H]1CN2c1cc(NCC(C)(C)C)nc(N)n1
5. CC(C)(C)CNc1cc(N2CC[C@@H]3NCC[C@@H]3C2)nc(N)n1 (racemic)

*A*
[3.26, 0.69, 3.22, 1.45, 0.46]
